tested on: LOLRI; assay: Pre-emergence action against LOLRI, 1280 g/ha; format: in vivo, Lolium rigidum; conditions: visual scoring after about 3 weeks vs untreated controls, 100% = plants have died, 0% = like control plants
Property: Pre-emergence action against LOLRI; scope: individual compounds
Report as: number unit

# example entries with known answers
O=C(O)COc1nn(-c2ccc(F)cc2)c(-c2ccc(F)nc2)c1Br = 100%
CCOC(=O)COc1nn(-c2ccccc2F)c(-c2ccc(F)nc2)c1I = 100%
COC(=O)COc1nn(-c2ccccc2F)c(-c2ccc(F)nc2)c1C(F)(F)F = 100%
COC(=O)CCOC(=O)COc1nn(-c2ccccc2F)c(-c2ccc(F)nc2)c1Br = 100%
CCOC(=O)COc1nn(-c2ccc(F)cc2)c(-c2ccc(F)nc2)c1Br = 100%

N#CCCOC(=O)COc1nn(-c2ccccc2F)c(-c2ccc(F)nc2)c1Br [VII-110] yielded Pre-emergence action against LOLRI of 100%

Measured Pre-emergence action against LOLRI, CCOC(=O)C(C)Oc1nn(-c2ccccc2F)c(-c2ccc(F)nc2)c1I (stereo not drawn) : 100%

Pre-emergence action against LOLRI reading for `CCOC(=O)COc1nn(-c2ccccc2F)c(-c2ccc(F)cn2)c1I` : 100%

For reference, reported Pre-emergence action against LOLRI for `CSc1c(OCC(=O)O)nn(-c2ccccc2F)c1-c1ccc(F)nc1` stands at 90%

----------
system: KCHSC; assay: Post-emergence action against KCHSC, 1.28 kg/ha; format: in vivo, Bassia scoparia; conditions: dosage 1280 g/ha, visual rating about 3 weeks after treatment vs untreated controls (100% = plants died)
In this section, each of the molecules is paired with its reported Post-emergence action against KCHSC.
Form entry: value (%) — number only.

CCOC(=O)COc1nn(-c2ccc(F)cc2)c(-c2ccc(F)nc2)c1Br = 100
CC(Oc1nn(-c2ccccc2F)c(-c2ccc(F)nc2)c1Br)C(=O)O (stereo not drawn) = 90
O=C(O)C1CCCN1C(=O)COc1nn(-c2ccccc2F)c(-c2ccc(F)nc2)c1Br (stereo not drawn) = 90
O=C(O)COc1nn(-c2ccc(F)cc2)c(-c2ccc(F)nc2)c1C(F)(F)F = 90
CCOC(=O)COc1nn(-c2ccc(F)cc2F)c(-c2ccc(F)nc2)c1Br = 90
CCOC(=O)COc1nn(-c2ccccc2F)c(-c2cncnc2)c1[N+](=O)[O-] = 90
CONC(=O)COc1nn(-c2ccc(F)cc2F)c(-c2ccc(F)nc2)c1Br = 90
O=C(O)C1CCCN1C(=O)COc1nn(-c2ccccc2F)c(-c2cncc(F)c2)c1Br (stereo not drawn) = 90
COC(=O)[C@@H](C)Oc1nn(-c2ccccc2)c(-c2cncnc2)c1Br = 100
CCOC(=O)COc1nn(-c2ccccc2F)c(-c2ccnnc2)c1Br = 90

Note to self: Post-emergence action against KCHSC recorded for COC(=O)C(C)Oc1nn(-c2ccccc2)c(-c2ccc(F)nc2)c1Br (stereo not drawn) was 90

Memo: `COC(=O)[C@@H](C)Oc1nn(-c2ccccc2F)c(-c2ccnc(F)c2)c1Br` , reported Post-emergence action against KCHSC: 90

Note to self: Post-emergence action against KCHSC recorded for `COC(=O)[C@@H](C)Oc1nn(-c2cc(F)ccc2F)c(-c2ccc(F)nc2)c1Br` was 90

Memo: `O=C(O)COc1nn(-c2ccc(F)cc2F)c(-c2ccc(F)nc2)c1Br` , reported Post-emergence action against KCHSC: 90
